Let's look at some molecules and their measured inhibition.
- TARGET OR TEST SYSTEM: ATP-binding cassette sub-family B member 6 (Homo sapiens)
- PROTOCOL DETAILS: blockers of ABCB6-driven porphyrin uptake – K562-ABCB6 cells, flow cytometry, validation set, pilot screen (AID 588550);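 further: 0% = DMSO wells and 100% = benzethonium chloride 70 µM positive control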
- ASSAY CONDITIONS: K562-ABCB6 porphyrin accumulation, 1 h, at 10 µM, stronger effect = higher value

| MOLECULE | inhibition (%) |
| --- | --- |
| COc1ccc(OC)c(C(=O)c2coc3ccc(O)cc23)c1 | 0 |
| NS(=O)(=O)c1cc2c(cc1C(F)(F)F)NC(Cc1ccccc1)NS2(=O)=O (stereo not given) | 6 |
| NS(=O)(=O)c1cc2c(cc1Cl)NC(C(Cl)Cl)NS2(=O)=O (stereo not given) | 4 |
| COc1cccc2c(O)cc(=O)n(C)c12 | 4 |
| Cc1ccc(Cl)c(Nc2ccccc2C(=O)O)c1Cl | 2 |
| CCOc1ccc(OCCSc2nc3ccccc3[nH]2)cc1 | 3 |
| CCCCCCC(=O)N(O)C1CC(=O)N(Cc2ccccc2)C1=O (stereo not given) | 9 |
| CN1C(=O)NC(c2ccc(O)cc2)C2=C1CN(c1cccc3ccccc13)C2=O (stereo not given) | -6 |
| CCCCCCCC(=O)OCC(O)CO (stereo not given) | 5 |
| CCOC(=O)c1ncn2c1CN(C)C(=O)c1cc(F)ccc1-2 | 0 |
